Listed below: IC50 values for each entry.
Biological target: Human immunodeficiency virus type 1 protease (Human immunodeficiency virus 1)
Test: In vitro inhibition HIV-1 IIIB protease.
Number only, in nM; omit the unit.

{"molecule": "CC(=O)N[C@H](C(=O)N[C@@H](Cc1ccccc1)[C@H](O)CN1CC2CCCCC2C[C@H]1C(=O)NC(C)(C)C)C(C)C (some centres not stated)", "unit_of_measure": "nM", "IC50": 3}

Short answer for CC(C)[C@H](NC(=O)c1ccc2ccccc2c1)C(=O)N[C@@H](Cc1ccccc1)[C@H](O)CN1CC2CCCCC2C[C@H]1C(=O)NC(C)(C)C (some centres not stated) : IC50 was 0.9

Short answer for CC(C)[C@@H]1NC(=O)c2ccccc2OCCCOc2ccc(cc2)C[C@@H]([C@H](O)CN2CC3CCCCC3C[C@H]2C(=O)NC(C)(C)C)NC1=O (some centres not stated) : IC50 was 8

Short answer for CC(C)(C)NC(=O)[C@@H]1CCCN1C[C@@H](O)[C@@H]1Cc2ccc(cc2)OCCCOc2cc3ccccc3cc2C(=O)N[C@@H](CC(N)=O)C(=O)N1 : IC50 was 400

Short answer for CC(C)(C)NC(=O)[C@@H]1C[C@@H]2CCCC[C@@H]2CN1C[C@@H](O)[C@@H]1Cc2ccc(cc2)OCCCOc2cc3ccccc3cc2C(=O)N[C@@H](CC(N)=O)C(=O)N1 : IC50 was 10

Short answer for CC(C)(C)NC(=O)[C@@H]1CCCN1C[C@@H](O)[C@@H]1Cc2ccc(cc2)OCCCCOc2cc3ccccc3cc2C(=O)N[C@@H](CC(N)=O)C(=O)N1 : IC50 was 900

Short answer for CC(C)[C@@H]1NC(=O)CCCCCOc2ccc(cc2)C[C@@H]([C@H](O)CN2CC3CCCCC3C[C@H]2C(=O)NC(C)(C)C)NC1=O (some centres not stated) : IC50 was 1.5

Short answer for CC(C)[C@@H]1NC(=O)c2cc3ccccc3cc2OCCCOc2ccc(cc2)C[C@@H]([C@H](O)CN2CC3CCCCC3C[C@H]2C(=O)NC(C)(C)C)NC1=O (some centres not stated) : IC50 was 5.5

Short answer for CC(C)[C@@H]1NC(=O)CCCCCCCOc2ccc(cc2)C[C@@H]([C@H](O)CN2CC3CCCCC3C[C@H]2C(=O)NC(C)(C)C)NC1=O (some centres not stated) : IC50 was 3.4

Short answer for CCCCCCC(=O)N[C@H](C(=O)N[C@@H](Cc1ccccc1)[C@H](O)CN1CC2CCCCC2C[C@H]1C(=O)NC(C)(C)C)C(C)C (some centres not stated) : IC50 was 6

Short answer for CC(C)(C)NC(=O)[C@@H]1C[C@@H]2CCCC[C@@H]2CN1C[C@@H](O)[C@@H]1Cc2ccc(cc2)OCCOc2cc3ccccc3cc2C(=O)N[C@@H](CC(N)=O)C(=O)N1 : IC50 was 13

Short answer for CC(C)(C)NC(=O)[C@@H]1C[C@@H]2CCCC[C@@H]2CN1C[C@@H](O)[C@@H]1Cc2ccc(cc2)OCCCCOc2cc3ccccc3cc2C(=O)N[C@@H](CC(N)=O)C(=O)N1 : IC50 was 88

Short answer for CC(C)[C@@H]1NC(=O)CCCCCCOc2ccc(cc2)C[C@@H]([C@H](O)CN2CC3CCCCC3C[C@H]2C(=O)NC(C)(C)C)NC1=O (some centres not stated) : IC50 was 1
